// each record: one item and its Ki for Adenosine receptor A2a (Rattus norvegicus)
Answer shape: numeric part, then the unit.

Worked set:
>>> print(df.to_string())
                                   molecule                             targetofassay  measuredproperty  recordedvalue
0  OC[C@H]1OC(n2cnc3c(NN4CCCCC4)nc(I)nc32)[C@H](O)[C@@H]1O (some centres undefined)  Adenosine receptor A2a (Rattus norvegicus)                Ki        8.63 µM
1  OC[C@H]1O[C@@H](n2cnc3c(NN4CCC(Sc5ccccc5)CC4)nc(Cl)nc32)[C@H](O)[C@@H]1O  Adenosine receptor A2a (Rattus norvegicus)                Ki        0.47 µM
2  OC[C@H]1OC(n2cnc3c(NN4CCOCC4)nc(I)nc32)[C@H](O)[C@@H]1O (some centres undefined)  Adenosine receptor A2a (Rattus norvegicus)                Ki        19.4 µM

Next molecule, Ki to be filled in.
Simply: OC[C@H]1O[C@@H](n2cnc3c(NN4CCCC4)ncnc32)[C@H](O)[C@@H]1O (stereo in doubt; 3) , Adenosine receptor A2a (Rattus norvegicus), Ki = 2.8 µM

---

- targetOfAssay: Adenosine receptor A1 (Rattus norvegicus)
- Sequence (P25099 whole entry): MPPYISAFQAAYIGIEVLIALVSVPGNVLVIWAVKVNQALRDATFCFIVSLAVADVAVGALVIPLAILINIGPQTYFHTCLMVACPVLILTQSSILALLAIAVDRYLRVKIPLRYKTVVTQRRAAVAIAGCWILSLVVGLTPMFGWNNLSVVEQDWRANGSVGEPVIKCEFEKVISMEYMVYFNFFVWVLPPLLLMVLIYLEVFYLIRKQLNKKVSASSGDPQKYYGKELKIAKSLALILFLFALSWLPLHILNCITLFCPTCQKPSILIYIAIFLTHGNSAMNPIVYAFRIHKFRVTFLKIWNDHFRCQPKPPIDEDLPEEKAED
measuredProperty: log10(Ki) (log10 of the value in nM)
Base-10 log of Ki, unit nM.

>>> df
                                   compound  recordedvalue
0  CC(Nc1ncnc2c1ncn2[C@@H]1O[C@H](CO)[C@@H](O)[C@H]1O)[C@@H](O)c1ccccc1 (stereo partly drawn)           0.43
1  OC[C@@H](Cc1ccccc1)Nc1nc(Cl)nc2c1ncn2C1O[C@H](CO)[C@@H](O)[C@H]1O (stereo partly drawn)           2.66

# lookup: `OC[C@H]1O[C@@H](n2cnc3c(NN4CCOCC4)nc(Cl)nc32)[C@H](O)[C@@H]1O` on Adenosine receptor A1 (Rattus norvegicus), log10(Ki) = 0.69

Fill in: Adenosine receptor A1 (Rattus norvegicus) log10(Ki) for `OC[C@H]1O[C@@H](n2cnc3c(NN4CCCCC4)nc(Cl)nc32)[C@H](O)[C@@H]1O` = 0.55

GET /values?item= CC(C)C[C@@H](CO)Nc1ncnc2c1ncn2C1O[C@H](CO)[C@@H](O)[C@H]1O (stereo partly drawn) &system= Adenosine receptor A1 (Rattus norvegicus) returns log10(Ki): 2.14

Summary line: OC[C@H]1O[C@@H](n2cnc3c(NN4CCCC4)ncnc32)[C@H](O)[C@@H]1O (stereo in doubt) , Adenosine receptor A1 (Rattus norvegicus), reported log10(Ki) = 0.90

The compound OC[C@H](Cc1ccccc1)Nc1nc(I)nc2c1ncn2C1O[C@H](CO)[C@@H](O)[C@H]1O (stereo partly drawn) on Adenosine receptor A1 (Rattus norvegicus): log10(Ki) was 1.36

Summary: OC[C@H](Cc1ccccc1)Nc1nc(Cl)nc2c1ncn2C1O[C@H](CO)[C@@H](O)[C@H]1O (stereo partly drawn) , Adenosine receptor A1 (Rattus norvegicus), log10(Ki) = 0.38
